Recorded values, source PubChem BioAssay (NCI).

Entries and their TGI values follow.
# Tested on: SK-MEL-28 melanoma
# PROTOCOL_DESCRIPTION: NCI tumour cell line growth inhibition, 48 h
TEST_READOUT: TGI

* CCOC(=O)c1ccc(N2C(=S)N(C(=O)c3ccccc3)C(=Nc3ccccc3)C2=Nc2ccccc2)cc1 | > 100 µM
* O=C(O)c1ccc(S(=O)(=O)c2ccccc2[N+](=O)[O-])cc1 | > 10 µM
* COc1cc(C2=C(c3cn(C)c4ccccc34)COC2=O)cc(OC)c1OC | 29.8 µM
* CN(NC(=O)c1cccs1)C1=NCCCN1 | > 100 µM
* Cc1ccc(-c2cc(N)n(-c3nc4c(c(=O)n(C)c(=O)n4C)n3C)n2)cc1 | > 100 µM

----------
Entries and their TGI values follow.
# Tested on: TK-10 renal
# PROTOCOL_DESCRIPTION: NCI tumour cell line growth inhibition, 48 h
TEST_READOUT: TGI

• COc1cc2ncn(-c3cc(OCCc4ccccc4)c(C(N)=O)s3)c2cc1OC = > 25 µM
• CC1(CF)SCc2nc3ccccc3n21 (stereo not given) = > 100 µM
• Cc1ccc(/C(O)=C/C(=O)C(=O)/C=C(\O)c2ccc(C)cc2C)c(C)c1 = 3.45 µM
• Cc1cc(S(=O)(=O)N/N=C(\Sc2cc(Cl)c(C)cc2S(N)(=O)=O)c2ccc(Cl)cc2)c(Cl)cc1Cl = > 100 µM
• COC(=O)C1=C2SCc3cccc(c3)CSC3=C(C(=O)OC)SC(=C(S2)S1)S3 = > 100 µM

----------
# Test system: HCC-2998 colon
# PROTOCOL_DESCRIPTION: NCI tumour cell line growth inhibition, 48 h; in the data active means GI50 below about 0.43 µM; inactive means the rest
Labels: t for active, f for inactive

• C[C@@]12CCCc3coc(c31)C(=O)c1cc3c(cc12)C(=O)C=CC3=O = f
• NC(N)=NCCCCCNc1noc(Cc2c[nH]c3cc(Br)ccc23)n1 = f
• CCC(C)(C)c1ccc(OCCCCCCN2CCNCC2)cc1 = f
• C[C@]12CC[C@@H]3c4ccc(O)cc4CC[C@H]3[C@@H]1CC[C@@H]2NS(=O)(=O)c1cccc(F)c1 = f
• COc1ccc2ncn(-c3cc(O[C@H](C)c4ccccc4Cl)c(C(N)=O)s3)c2c1 = t
• O=[N+]([O-])c1ccc2c(c1)C(c1ccccc1Cl)=Nc1cn[nH]c1N2 = f

----------
Entries and their TGI values follow.
# System: OVCAR-3 ovarian
# PROTOCOL_DESCRIPTION: NCI tumour cell line growth inhibition, 48 h
TEST_READOUT: TGI

- Cc1ccc2c(=O)cc(-c3cccs3)[nH]c2n1: > 100 µM
- NC(N)=NCCCCCNc1noc(Cc2c[nH]c3cc(Br)ccc23)n1: 33.5 µM
- O=c1[nH]nc(Cc2ccc([N+](=O)[O-])cc2)n1CCO: > 100 µM
- COc1ccc(Nc2nc(NS(=O)(=O)c3cc(C)c(Cl)cc3S)n[nH]2)cc1: > 100 µM
- O=C(Nc1ccc(CO)cc1)c1coc2ccccc2c1=O: > 100 µM
- CCCCCCCCCCCCCCCCCC(=O)O[C@H](COC(=O)CCCCCCCCCCC)COC(=O)CCCCCCCCCCCCCCC: > 100 µM
- CC(C)S(=O)(=O)c1ccccc1Nc1nc(Nc2cccc(NC(=O)CN)c2)ncc1Cl: 3.75 µM
- NC1=NS(=O)(=O)Nc2nc(-c3ccc([N+](=O)[O-])cc3)[nH]c21: > 100 µM
- Nc1ccn(C2(CO)C=C(CO)C(O)C2O)c(=O)n1 (stereo not given): > 25.8 µM
- CCCCCC(=O)NC(=S)Nc1nn[nH]n1: > 100 µM
- COc1cc(C)c2c(c1C)OC(=O)c1c(C)c(Cl)c(O)c(C=O)c1O2: 9.5 µM
- O=c1[nH]/c(=C/c2ccc(OCc3ccccc3)cn2)c(=O)[nH]/c1=C/c1ccc(O)cc1: > 76.3 µM
- N.N.N.N.[Cl-].[Co+3].[N-]=[N+]=[N-].[N-]=[N+]=[N-]: > 100 µM
- N=C(N)c1ccc(N=Nc2c(O)ccc3c2[nH]c2ccccc23)cc1: 5.67 µM
- CC1=NN(c2ccc(S(=O)(=O)O)cc2)C2(C1)SCC(=O)N2c1nc2ccccc2s1 (stereo not given): > 100 µM
- CC1CCC(=O)C(C(=O)CC2CC(=O)NC(=O)C2)C1 (stereo not given): > 100 µM
- CC1=NN2C(=N)/C(=C/c3ccco3)C(=O)N=C2S1: > 100 µM
- CCc1ccccc1NC(=O)c1sc2nc3c(cc2c1N)C(=O)CCC3: 16 µM
- CC(C)CCCC(C)[C@H]1CCC2[C@H]3C(CC[C@@]21C)[C@@]1(C)CCC=C[C@]12C[C@@H]2[C@@H]3O (stereo not given in full): > 100 µM
- O=C1c2ccccc2C(=O)N1Cc1ccccc1-c1c2nc(c(-c3ccccc3CN3C(=O)c4ccccc4C3=O)c3ccc([nH]3)c(-c3ccccc3CN3C(=O)c4ccccc4C3=O)c3nc(c(-c4ccccc4CN4C(=O)c5ccccc5C4=O)c4ccc1[nH]4)C=C3)C=C2: > 100 µM
- O=C1c2ccc3c4ccccc4n(Cc4ccccc4)c3c2C(=O)N1c1ccccc1: 11.9 µM
- Cc1ccc([C@H]2CC(=O)C[C@H](c3ccc(C)cc3)C23C(=O)c2ccccc2C3=O)cc1: > 100 µM
- Cc1ccc2c(c1)[nH]c1cc(C(F)(F)F)ccc1[p+]2=O (stereo not given): > 100 µM
- CC(=O)O[C@H]1C#C/C=C\C#CC[C@@H]2C(=O)N[C@@H]12: > 100 µM
- C=CCNC(=O)N(CCC)CCCCC(NC(C)=O)C(=O)NCc1ccccc1 (stereo not given): > 100 µM
- O=C(/C=C/c1cc(CN2CCOCC2)c(O)c2ncccc12)c1cc(CN2CCOCC2)c(O)c2ncccc12: > 100 µM
- CC(=O)/C=C/c1ccc(C#Cc2ccccc2)s1: 29.6 µM
- O=c1c2c([N+](=O)[O-])cccc2nc2[nH]c3ccccc3n12: 70.3 µM
- Cc1ccn2c(=O)cc(-c3ccccc3)nc2c1: > 100 µM
- O=C1CC2C(=O)N(Cc3ccccc3)C1C=C2S(=O)(=O)c1ccccc1 (stereo not given): > 100 µM
- O=C(OCC1OC2OC(c3ccccc3)(n3ccc4c([N+](=O)[O-])ccnc43)OC2C1OC(=O)c1ccccc1)c1ccccc1 (stereo not given): > 100 µM
- O=c1[nH]cnc2cccc(Cl)c12: > 100 µM
- CCOC(=O)/C1=C(\C)N(c2ccc(C)cc2)C(=O)c2ccccc2C(=O)c2c(OC(C)=O)ccc(OC(C)=O)c21: 39.3 µM
- COC(=O)N/N=C(\C)C(CN1CCCCC1)C(C1=C(O)c2ccccc2OC1)c1ccccc1 (stereo not given): > 100 µM
- CCOC(=O)/C=C(\C(=O)OCC)n1cc(C)c(=O)n(Cc2cnnn2CCCCOC(C)=O)c1=O: 39.1 µM

----------
# Tested on: RXF 393 renal
# PROTOCOL_DESCRIPTION: NCI tumour cell line growth inhibition, 48 h
Entries and their TGI values follow.
TEST_READOUT: TGI (µM)

* Nc1nc(SN=Nc2ccc(S(N)(=O)=O)cc2)c2[nH]cnc2n1 | 5.52
* C=C1C(=O)CC2C(=O)C(C)(O)CC/C=C(\C)C(=O)CC12 (stereo unspecified) | 40.3
* C[n+]1cc(C(O)c2ccc3c(c2)OCO3)c2ccccc2c1 (stereo unspecified) | 62.5

----------
# Test system: UACC-257 melanoma
# PROTOCOL_DESCRIPTION: NCI tumour cell line growth inhibition, 48 h
TEST_READOUT: TGI

- O=C(Cc1ccccc1)NN1C(=O)C(Cl)C1c1ccc(O)cc1 (stereo not given): > 100 µM
- CN(O)C(=O)c1cccc(Cl)c1: > 100 µM
- C=C1C(=O)O[C@H]2/C=C(/C)C3=CC(=O)[C@@](C)(C[C@@H](OC(=O)/C(C)=C\C)C12)O3 (stereo not given in full): 5.69 µM
- c1cc2nnnn2nc1N1CCCC1: > 100 µM
- O=c1[nH]/c(=C/c2ccc(OCc3ccccc3)cn2)c(=O)[nH]/c1=C/c1ccc(O)cc1: > 100 µM
- COc1cc2c3c(n(CCCN(C)C)c(=O)c2cc1OC)-c1ccccc1C3=O: > 100 µM
- O=c1[nH]nc(Cc2ccc([N+](=O)[O-])cc2)n1CCO: > 100 µM
- CCn1c(CO)nn(-c2cc(O[C@@H](C)C(F)(F)F)c(C(=O)Nc3c(F)cccc3Cl)cc2F)c1=O: > 100 µM
- Cc1ccc(S(=O)(=O)OCC(=O)O)cc1: > 100 µM
- CCOC(=O)c1c[nH]c2oc(/C=N/N3CC(CN4CCOCC4)OC3=O)cc2c1=O (stereo not given): > 100 µM
